Recorded below: EC50, system Radical scavenging activity.
Output spec: scalar in µM, unitless text.

Asked: For COc1cc(/C=C/C(=O)CC(=O)/C=C/c2ccc(O)c(OC)c2)ccc1O [CURCUMIN] , what is its reported EC50?
Given back: 26.6

Asked: Same question for O=c1c(O)c(-c2ccc(O)c(O)c2)oc2cc(O)cc(O)c12 [QUERCETIN] please.
Given back: 10.3

Asked: For O=C(NCC1CCN(Cc2ccccc2)CC1)c1c(O)c2ccccc2n(Cc2cc(O)c(O)c(O)c2)c1=O then?
Given back: 107

Asked: Here is the next molecule: COc1cc(Cn2c(=O)c(C(=O)NCC3CCN(Cc4ccccc4)CC3)c(O)c3ccccc32)cc(OC)c1O
Given back: 90.5

Asked: Queued: O=C(NCC1CCN(Cc2ccccc2)CC1)c1c(O)c2cc(O)c(O)cc2n(Cc2ccccc2)c1=O
Given back: 20.8

Asked: Okay, and O=C(NCC1CCN(Cc2ccccc2)CC1)c1c(O)c2cc(O)c(O)cc2[nH]c1=O ?
Given back: 12.2

Asked: Ok, now Cn1c(=O)c(C(=O)NCC2CCN(Cc3ccccc3)CC2)c(O)c2cc(O)c(O)cc21
Given back: 21.7

This collection of values is drawn from ChEMBL document CHEMBL3232950.
